System: NCI-H460 lung
Experiment: NCI tumour cell line growth inhibition, 48 h
ASSAY_READOUT: TGI

compound=Cc1ccc(C2=NO[C@@H]3C(=O)N(c4ccc(Cc5ccc(N6C(=O)[C@H]7C(c8ccc(C)cc8)=NO[C@H]7C6=O)cc5)cc4)C(=O)[C@H]23)cc1 target_desc="NCI-H460 lung" assay_readout=TGI assay_result="> 100 µM"
compound=CC1=CCC[C@]2(C)C1=CC(=O)O[C@H]2c1ccoc1 target_desc="NCI-H460 lung" assay_readout=TGI assay_result="> 100 µM"
compound="CC(C)N1CCCOC(c2ccc([N+](=O)[O-])cc2)O1 (stereo not given)" target_desc="NCI-H460 lung" assay_readout=TGI assay_result="> 100 µM"
compound="COC(=O)C1=CC2OC13CC1CCC3(C2=O)C1(C)C (stereo not given)" target_desc="NCI-H460 lung" assay_readout=TGI assay_result="> 100 µM"
compound="CNC1C(O)CC(OC2C/C=C(\\C)C/C(C)=C/C=C/CCC(C)CNC(=O)/C=C/C=C/C2C)OC1C (stereo not given)" target_desc="NCI-H460 lung" assay_readout=TGI assay_result="0.317 µM"
compound=Cc1n[nH]c(=O)n1/N=C/c1cccnc1 target_desc="NCI-H460 lung" assay_readout=TGI assay_result="> 100 µM"
compound=C/C(=C\c1c[nH]c2ccccc12)[N+](=O)[O-] target_desc="NCI-H460 lung" assay_readout=TGI assay_result="17.4 µM"
compound=CN1CCN(Cc2ccc(Nc3ncc(Cl)c(Nc4ccccc4S(=O)(=O)N(C)C)n3)cc2)CC1 target_desc="NCI-H460 lung" assay_readout=TGI assay_result="0.198 µM"
compound="CC1(C)C2CCC13C(=O)C1OC3(C2)C2C(=O)c3c(O)ccc(O)c3C(=O)C12 (stereo not given)" target_desc="NCI-H460 lung" assay_readout=TGI assay_result="> 100 µM"
compound=COc1ccc2c(c1)[n+]([O-])c(-c1nc3ccccc3s1)c(N)[n+]2[O-] target_desc="NCI-H460 lung" assay_readout=TGI assay_result="> 100 µM"
compound=CN(CCC(=O)O)S(=O)(=O)c1ccccc1 target_desc="NCI-H460 lung" assay_readout=TGI assay_result="> 100 µM"
compound=Cn1cnc2c(NCc3ccccc3)nc(NCCO)nc21 target_desc="NCI-H460 lung" assay_readout=TGI assay_result="441 µM"
compound=COC(=O)[C@@H](C)C[C@H](Cc1ccccc1)NC(=O)c1csc([C@@H](C[C@H](C(C)C)N(C)C(=O)[C@@H](NC(=O)[C@H]2CCCCN2C)C(C)C)OC(C)=O)n1 target_desc="NCI-H460 lung" assay_readout=TGI assay_result="> 25 µM"
compound=O=C(Cn1ccnc1[N+](=O)[O-])NCC(F)(F)C(F)(F)F target_desc="NCI-H460 lung" assay_readout=TGI assay_result="> 100 µM"
compound="COc1ccc(CCN(C)C(=O)CC(C#N)(c2ccccc2)c2ccc(OC)c(OC)c2)cc1OC (stereo not given)" target_desc="NCI-H460 lung" assay_readout=TGI assay_result="> 100 µM"
compound="Cc1cc(NCC2CC/C(=C\\C=C\\c3ccccc3)C2=O)no1 (stereo not given)" target_desc="NCI-H460 lung" assay_readout=TGI assay_result="> 100 µM"
compound="CC(C)C(Cl)CC/C(CBr)=C(\\Cl)CCl (stereo not given)" target_desc="NCI-H460 lung" assay_readout=TGI assay_result="29.3 µM"
compound=CSC(=S)NNC(=O)c1ccncc1 target_desc="NCI-H460 lung" assay_readout=TGI assay_result="> 100 µM"
compound=CCCC(=O)NNc1[nH]c(-c2ccc(OC)cc2)cc1C(=O)OCC target_desc="NCI-H460 lung" assay_readout=TGI assay_result="> 100 µM"
compound="Cc1ccc(S(=O)(=O)n2cnc(CC(NC(=O)C3CCC(=O)N3C(=O)OCc3ccccc3)C(=O)N3CCCC3C(=O)NN)c2)cc1 (stereo not given)" target_desc="NCI-H460 lung" assay_readout=TGI assay_result="> 100 µM"
